- assayName: NCI Yeast Anticancer Drug Screen. Data for the rad50 strain (AID 155);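 note: 0% = growth of vehicle-only cultures of the same strain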
- conditionParameters: S. cerevisiae rad50 strain growth inhibition; at 100.0 µM; hits give high values
The panel holds about 79,000 compounds, 15% with a hit somewhere; the sample as a whole holds those more often. Active and inactive are the calls of the source. Cut-off read from the data, not from the text of the source: active = growth inhibition above about 70%; inactive = the rest.
Reported growth inhibition values for the following compounds.

Some entries whose results are on file:
[[record]]
compound = "C/C(=N\\NC(=S)NNC(=S)N(C)c1ccccc1)c1ccccn1"
measvalue = "83% (active)"

[[record]]
compound = "Cc1ccc(S(=O)(=O)Nc2ccc3c(c2)C(O)c2ccccc2-3)cc1 (stereo not given)"
measvalue = "42% (inactive)"

[[record]]
compound = "O=C1NC(c2c(Cl)cccc2Cl)Nc2ccccc21 (stereo not given)"
measvalue = "91% (active)"


Qu. Look up growth inhibition: Clc1cc(-c2ccccc2)nc2ccccc12
Ans. 81% (active)

Qu. Look up growth inhibition: NNC(=S)Nc1cccc2ccccc12
Ans. 43% (inactive)

Qu. Look up growth inhibition: CN(CC(=O)O)c1ccc(/C=C/c2ccnc3ccccc23)cc1
Ans. 31% (inactive)

Qu. Look up growth inhibition: CCN1/C(=C/c2ccc3ccccc3[n+]2CC)C=Cc2ccccc21
Ans. 96% (active)

Qu. Look up growth inhibition: O=Nn1c2ccccc2c2cc([N+](=O)[O-])ccc21
Ans. 93% (active)

Qu. Look up growth inhibition: Nc1nc2c(c(=O)[nH]1)NC(CCNc1ccc(C(=O)O)cc1)CN2 (stereo not given)
Ans. -1% (inactive)

Qu. Look up growth inhibition: O=S(=O)(c1cc(Cl)ccc1O)c1cc(Cl)ccc1O
Ans. 99% (active)

Qu. Look up growth inhibition: O=C(Nc1cccc(C(F)(F)F)c1)Oc1ccc(Cl)cc1C(=O)c1ccccc1
Ans. 98% (active)

Qu. Look up growth inhibition: Oc1ccc(C=Nc2ccccc2O)cc1
Ans. 90% (active)

Qu. Look up growth inhibition: Cc1ccc(Nc2n[nH]c(=S)s2)cc1
Ans. 93% (active)

Qu. Look up growth inhibition: O=C1CC(=O)N(C2CCCCC2)C(=O)N1c1ccccc1S(=O)(=O)Oc1ccccc1
Ans. 33% (inactive)

Qu. Look up growth inhibition: COC(=O)CSc1nnc(CSc2ccc(Cl)cc2)n1-c1ccccc1
Ans. 12% (inactive)

* * *

- assayName: NCI Yeast Anticancer Drug Screen. Data for the sgs1 strain (AID 173);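 note: 0% = growth of vehicle-only control cultures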
- conditionParameters: S. cerevisiae sgs1 mutant, at 100.0 µM, hits give high values
- Protocol: Growth inhibition of yeast strains with defined genetic alterations is measured as a screen for potential anti-cancer activity. Selected strains with alterations in DNA damage repair or cell cycle control were exposed to compounds and growth inhibition was measured relative to vehicle treated controls. The strain used in this assay is sgs1
About 79,000 compounds went through this panel and 15% of them were active in at least one assay; those are over-represented in the sample as a whole.
Reported growth inhibition values for the following compounds.
Return type: number; implicit unit %.

Some entries whose results are on file:
[[record]]
compound = "CCC(C)(c1ccc(O)c(C)c1)c1ccc(O)c(C)c1"
measvalue = 98

[[record]]
compound = "O=C1C=CC(=Nc2ccccc2)c2ccccc21"
measvalue = 76

[[record]]
compound = "Cc1c2cc[n+](CCN3CCCCC3)cc2c(C)c2c1[nH]c1ccc(O)cc12"
measvalue = 94

[[record]]
compound = "Nc1ccc2c(=S)c3ccccc3[nH]c2c1"
measvalue = 59

[[record]]
compound = "Cc1ccc(S(=O)(=O)N/N=C/C2(c3ccccc3)c3ccccc3-c3ccccc32)cc1"
measvalue = 80


Now for a further compound.
Qu. Look up growth inhibition: C/C(=N\NC(=S)NC1CCCC1)c1ccccn1
Ans. 99

* * *

- assayName: NCI Yeast Anticancer Drug Screen. Data for the wt1 strain (AID 149);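 note: 0% = growth of vehicle-treated wt1 cultures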
- conditionParameters: S. cerevisiae wt1 strain (SPY 50644) growth inhibition; at 3.7 µM; hits give high values
This is part of a sample that, as a whole, favours compounds with a hit. Of some 79,000 tested, about 15% had one in any assay.
measurementName: growth inhibition (%)
Return type: number; implicit unit %.

Some entries whose results are on file:
[[record]]
compound = "CC(=O)CC(=O)/C=C/c1cccs1"
measurementname = "growth inhibition"
measvalue = -23

[[record]]
compound = "CCOC(=O)C1=C(C)NC(C)=C(C(=O)OCC)C1c1ccccc1Cl"
measurementname = "growth inhibition"
measvalue = 3

[[record]]
compound = "NC(N)=N/N=C/c1cc(Cl)cc(Cl)c1O"
measurementname = "growth inhibition"
measvalue = -19

[[record]]
compound = "C(=N/NC1=NCCN1)/c1c2ccccc2c(/C=N\\NC2=NCCN2)c2ccccc12"
measurementname = "growth inhibition"
measvalue = 9

[[record]]
compound = "CC1=CCCC2C1(C)CCC(C)C2(C)Cc1cc(O)ccc1O (stereo unspecified)"
measurementname = "growth inhibition"
measvalue = 13

[[record]]
compound = "C/C(=N\\NC(=S)NC1CCCC1)c1ccccn1"
measurementname = "growth inhibition"
measvalue = 75

[[record]]
compound = "Oc1ccc(C=Nc2ccccc2O)cc1"
measurementname = "growth inhibition"
measvalue = 28

[[record]]
compound = "NC(=O)N1c2ccccc2C=Cc2ccccc21"
measurementname = "growth inhibition"
measvalue = -16


Qu. Look up growth inhibition: Cc1c2cc[n+](CCN3CCCCC3)cc2c(C)c2c1[nH]c1ccc(O)cc12
Ans. 2

* * *

- assayName: NCI Yeast Anticancer Drug Screen. Data for the rad18 strain (AID 177)
- conditionParameters: S. cerevisiae rad18 mutant growth inhibition; at 1.2 µM; hits give high values
Compounds without any hit were thinned out: in the full panel of roughly 79,000, 15% have a hit.
Reported growth inhibition values for the following compounds.
Return type: number; implicit unit %.

[[record]]
compound = "CN(N=O)C(=O)N[C@@H](C=O)[C@@H](O)[C@H](O)[C@H](O)CO"
measurementname = "growth inhibition"
measvalue = 0

[[record]]
compound = "OB(O)c1ccccc1C#Cc1ccccc1B(O)O"
measurementname = "growth inhibition"
measvalue = -4

[[record]]
compound = "O=NN(CCCl)C(=O)NCCCl"
measurementname = "growth inhibition"
measvalue = 4

[[record]]
compound = "CCN(CC)CC(O)C1CCC(c2ccccc2)CC1 (configuration not stated)"
measurementname = "growth inhibition"
measvalue = 7

[[record]]
compound = "COc1ccc(/C=C(\\NC(=O)c2ccccc2)C(=O)NN(C)c2ccnc3cc(Cl)ccc23)cc1OC"
measurementname = "growth inhibition"
measvalue = 2

[[record]]
compound = "O=C(CCc1ccccc1)ON1C(=S)C(c2ccccc2)(c2ccccc2)N=C1Sc1ccccc1"
measurementname = "growth inhibition"
measvalue = 21


Qu. Look up growth inhibition: COC(=O)CSc1nnc(CSc2ccc(Cl)cc2)n1-c1ccccc1
Ans. -1

Qu. Look up growth inhibition: CC(=O)Oc1ccc(N2C(=O)C3c4[nH]c5ccccc5c4C4CCC(C(C)(C)C)CC4C3C2=O)cc1 (configuration not stated)
Ans. 13

Qu. Look up growth inhibition: CC1CCC2(C(=O)O)CCC3(C)C(=CCC4C5(C)CC(O)C(O)C(C)(CO)C5C(O)CC43C)C2C1C (configuration not stated)
Ans. -43

* * *

- assayName: NCI Yeast Anticancer Drug Screen. Data for the rad52 strain (AID 147);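 note: 0% = growth of vehicle-treated control cultures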
- conditionParameters: S. cerevisiae rad52 mutant growth inhibition; at 11.0 µM; hits give high values
Compounds without any hit were thinned out: in the full panel of roughly 79,000, 15% have a hit.
measurementName: growth inhibition (%)
Return type: number; implicit unit %.

Some entries whose results are on file:
[[record]]
compound = "Nc1ccc(CCl)cc1Cc1c(O)ccc2ccccc12"
measurementname = "growth inhibition"
measvalue = 9

[[record]]
compound = "C=C1N(C)c2ccc(Cl)cc2C1(C)C"
measurementname = "growth inhibition"
measvalue = -38

[[record]]
compound = "CCC(C)(c1ccc(O)c(C)c1)c1ccc(O)c(C)c1"
measurementname = "growth inhibition"
measvalue = 42


Qu. Look up growth inhibition: CC(=O)OCC1OC(O[C@H]2C=C[C@@H](C(=O)OCc3ccccc3)n3c(=O)n(-c4ccccc4)c(=O)n32)C(OC(C)=O)C(OC(C)=O)C1OC(C)=O (some centres not stated)
Ans. 14

Qu. Look up growth inhibition: COC(=O)c1oc([N+](=O)[O-])c(Cl)c1Cl
Ans. 71

* * *

- assayName: NCI Yeast Anticancer Drug Screen. Data for the bub3 strain (AID 167)
- conditionParameters: S. cerevisiae bub3 mutant strain, at 3.7 µM, hits give high values
This is part of a sample that, as a whole, favours compounds with a hit. Of some 79,000 tested, about 15% had one in any assay.
Reported growth inhibition values for the following compounds.
Return type: number; implicit unit %.

Some entries whose results are on file:
[[record]]
compound = "C/C=C/[P+](c1ccccc1)(c1ccccc1)c1ccccc1"
measvalue = 29

[[record]]
compound = "C=C(CCCO)[C@@H]1CC[C@@](C)(O)[C@H]1C"
measvalue = -6

[[record]]
compound = "Clc1cc(Cc2ccc(N=C/C=C/c3ccccc3)c(Cl)c2)ccc1N=C/C=C\\c1ccccc1"
measvalue = 1


Qu. Look up growth inhibition: CCCCC(CC)C(=O)Oc1ccc(C(=O)c2ccccc2)c(O)c1 (centres undefined)
Ans. 27

Qu. Look up growth inhibition: CN(C)CCNc1cccc2sc3ccc(O)cc3c(=O)c12
Ans. -4

Qu. Look up growth inhibition: CC(=O)C1=C(O)C2(C)c3c(O)c(C)c(O)c(C(C)=O)c3OC2(Sc2ccccc2)CC1=O (centres undefined)
Ans. 40

Qu. Look up growth inhibition: CCCc1[nH]nc(C(N)=O)c1N=NN(C)C
Ans. -9

Qu. Look up growth inhibition: CCOC(=O)CNC(=O)c1[nH]cnc1/N=N/N(C)C
Ans. 31

Qu. Look up growth inhibition: O=C1CSC(=S)N1Cc1ccc(Cl)cc1Cl
Ans. 15

Qu. Look up growth inhibition: COc1ccc2oc(-c3ccc(Cl)cc3)c(N3CCN(C)CC3)c2c1
Ans. -6

Qu. Look up growth inhibition: COc1cc(N(C)C)ccc1/C=C\c1ccnc2ccccc12
Ans. -11

Qu. Look up growth inhibition: CC(=O)C1(O)Cc2c(O)c3c(c(O)c2C(OC2CC(N)C(O)C(C)O2)C1)C(=O)c1ccccc1C3=O (centres undefined)
Ans. 8

Qu. Look up growth inhibition: Cc1cccc(/C=N/NC(=S)N(C)CCc2ccccn2)n1
Ans. 91

Qu. Look up growth inhibition: C/C(=N\NC(=S)NC1CCCC1)c1ccccn1
Ans. 64

Qu. Look up growth inhibition: CCCCC1=NNC(=O)C1
Ans. 0

Qu. Look up growth inhibition: O=C(NCCCCCN1CCC2(CCCCC2)CC1)C(C1CCCCC1)C1CCCCC1
Ans. 2

Qu. Look up growth inhibition: N#C/C(=C1C=C(Br)/C(=N\O)C=C\1Cl)c1cccc2ccccc12
Ans. 49

Qu. Look up growth inhibition: Cc1ccc(S(=O)(=O)N(C)c2ccc(Cl)cc2C2=NCCc3ccccc32)cc1
Ans. -9
